assay: NCI Yeast Anticancer Drug Screen. Data for the rad50 strain (AID 155);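 note: 0% = growth of vehicle-only cultures of the same strain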; details: S. cerevisiae rad50 strain growth inhibition; at 5.0 µM (retest, dose inferred, filed as 0.5); stronger effect = higher value
This is part of a sample that, as a whole, favours compounds with a hit. Of some 79,000 tested, about 15% had one in any assay. Active and inactive are the calls of the source. Cut-off read from the data, not from the text of the source: active = growth inhibition above about 70%; inactive = the rest. *1 amine or outer side, *2 acyl side, *3 side chain or, on linkers, in order; H or OH if unused. Where a SMILES comes first, the peptide text is derived from it. [ ]: non-standard residue; d: D form. X2 = CC[C@H](C)[C@H](OC(=O)[C@@H](C)[C@@H](CC)N[*:1])C(=O)[*:2]; X3 = C[C@H](N[*:1])C(=O)C(C)(C)C(=O)[*:2]; NMeY = CN[C@@H](Cc1ccc(O)cc1)C(=O)O; NMeL = CN[C@@H](CC(C)C)C(=O)O; NMeV = CN[C@H](C(=O)O)C(C)C
reported_property: growth inhibition

query: Data request, read-out growth inhibition, for O=C(O)C1C2c3ccccc3C(c3ccccc32)C1C(=O)O (stereo unspecified)
result: 7% (inactive)

query: Follow-up entry: CC(=O)O.CC(=O)[O-].CC(=O)[O-].[Co+3].[NH-]CC[NH-].[NH-]CC[NH-]
result: -5% (inactive)

query: Follow-up entry: CC1(C)N=C(N)N=C(N)N1CCCOc1ccc(NC(=O)c2ccc(S(=O)(=O)F)cc2)cc1
result: -3% (inactive)

query: Follow-up entry: CS/C([S-])=N/N=C/c1ccccn1.[Cl][Pt+]
result: 1% (inactive)

query: Follow-up entry: O=C1CCC[N]1[Hg][N]1CCCC1=O
result: 44% (inactive)

query: Follow-up entry: CCN(CCCl)c1ccc(/C=C/C2=[N+](C)c3ccccc3C2(C)C)c(C)c1
result: -5% (inactive)

query: Follow-up entry: COC(=O)C1=C(C)N2CCSC2(C)C(C(=O)OC)C1c1cccc(Cl)c1 (stereo unspecified)
result: -21% (inactive)

query: Follow-up entry: CCC[CH2][Sn]1([CH2]CCC)[O]CC(CN(C)Cc2ccccc2)[O]1 (stereo unspecified)
result: 3% (inactive)

query: Follow-up entry: CC(C)c1cccc(C(C)C)c1NC(=O)C(=O)CC(=O)CC(c1ccccc1)c1c(O)c2ccccc2oc1=O (stereo unspecified)
result: 8% (inactive)

query: Follow-up entry: CCCCN1C(=O)C2C(C1=O)C1(Cl)C(Cl)=C(Cl)C2(Cl)C1(Cl)Cl (stereo unspecified)
result: 17% (inactive)

query: Follow-up entry: C1CC[CH]([Sn]([CH]2CCCCC2)[CH]2CCCCC2)CC1.C1CC[CH]([Sn]([CH]2CCCCC2)[CH]2CCCCC2)CC1
result: 2% (inactive)

query: Follow-up entry: CCOC(=O)C1=C(C(=O)OCC)C2(c3ccccc3)N(O1)c1ccccc1C2(C)C (stereo unspecified)
result: 54% (inactive)

query: Follow-up entry: CC[C@H](C)[C@@H]1OC(=O)[C@@H](C)[C@@H](CC)NC(=O)[C@H](C)NC(=O)C(C)(C)C(=O)[C@H](C)NC(=O)[C@H](Cc2ccc(OC)cc2)N(C)C(=O)[C@H](C(C)C)N(C)C(=O)CNC(=O)[C@H](CC(C)C)N(C)C(=O)CNC1=O (cyclo(A[X2]G[NMeL]G[NMeV][NMeY](Me)[X3]))
result: 99% (active)

query: Follow-up entry: CC(Cc1ccccc1)N(C)Cc1ccc(-c2ccccc2)o1 (stereo unspecified)
result: 27% (inactive)

query: Follow-up entry: c1ccc(NC2=NCCN2)nc1
result: -4% (inactive)

query: Follow-up entry: C[N+](C)(C)CC1CCCC(C[N+](C)(C)C)C1=O (stereo unspecified)
result: 1% (inactive)

query: Follow-up entry: C(CCC[Te][Te]CCCCCCOC1CCCCO1)CCOC1CCCCO1 (stereo unspecified)
result: 6% (inactive)

query: Follow-up entry: CSc1ccccc1[As](C)C
result: 96% (active)

query: Follow-up entry: Br[Se]c1ccccn1
result: 44% (inactive)

query: Follow-up entry: COC1=CC2=CCC3C(CCC4(C)C3CCC4(C)OC(C)=O)C2(C)CC1 (stereo unspecified)
result: -2% (inactive)

query: Follow-up entry: O=P(CP(=O)(c1ccccc1)c1ccccc1)(c1ccccc1)c1ccccc1.[CH3][Sn]([CH3])([Cl])[Cl]
result: 6% (inactive)

Data provenance: PubChem BioAssay (NCI)
